Target: Casein kinase I isoform gamma-1 (Homo sapiens) (UniProt Q9HCP0)
Sequence (Q9HCP0 whole entry, looked up, canonical isoform): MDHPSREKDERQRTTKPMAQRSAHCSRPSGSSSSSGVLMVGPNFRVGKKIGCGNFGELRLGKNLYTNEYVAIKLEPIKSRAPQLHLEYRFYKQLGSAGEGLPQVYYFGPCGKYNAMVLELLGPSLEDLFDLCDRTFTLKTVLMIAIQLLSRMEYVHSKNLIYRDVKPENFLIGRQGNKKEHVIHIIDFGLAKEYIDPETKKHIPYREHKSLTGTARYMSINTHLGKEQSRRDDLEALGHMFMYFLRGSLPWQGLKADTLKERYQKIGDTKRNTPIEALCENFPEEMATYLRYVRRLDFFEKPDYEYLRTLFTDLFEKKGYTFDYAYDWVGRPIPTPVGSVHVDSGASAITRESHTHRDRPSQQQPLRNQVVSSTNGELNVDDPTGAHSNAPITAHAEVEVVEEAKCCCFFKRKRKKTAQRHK
Settings: at 1 µM
Description: Millipore: Percentage of residual kinase activity of CSNK1G1 at 1uM relative to control. Control inhibitor: Phosphoric acid* at 0.3uM. Buffer: 8 mM MOPS pH 7.0, 0.2 mM EDTA
endpoint-label: residual activity
Please don't drop the unit; write it after the number.

Request: Can you share its residual activity? I mean this compound: CCn1cnc2c(Nc3cccc(Cl)c3)nc(N[C@@H]3CCCC[C@@H]3N)nc21
Result: 30%

Request: Please report the recorded residual activity for O=c1[nH]c2ccccc2n1C1CCN(Cc2ccc(-c3nc4cc5[nH]cnc5cc4nc3-c3ccccc3)cc2)CC1 .
Result: 90%

Request: // lookup residual activity for COC(=O)[C@@]1(O)C[C@H]2O[C@]1(C)n1c3ccccc3c3c4c(c5c6ccccc6n2c5c31)C(=O)NC4
Result: 93%

Request: Which value of residual activity has been reported for CC(C)[C@H](CO)Nc1nc(Nc2cccc(Cl)c2)c2ncn(C(C)C)c2n1 in the records?
Result: 10%

Request: Which residual activity is reported for this compound? C[S+]([O-])c1ccc(-c2nc(-c3ccc(F)cc3)c(-c3ccncc3)[nH]2)cc1 (configuration not stated)
Result: 119%

Request: Query (compound): COc1cc2ncnc(Nc3ccc(OCc4ccccc4)cc3)c2cc1OC ; field requested: residual activity
Result: 95%

Request: Data request, read-out residual activity, for N/C(=N\[N+](=O)[O-])N/N=C\c1ccc(-c2cccc([N+](=O)[O-])c2)o1
Result: 88%

----------
Task for the reader: assign each of the following compounds its reported residual activity.
Biological target: Tyrosine-protein kinase Fes/Fps (Homo sapiens) (UniProt P07332)
Sequence (P07332 whole entry): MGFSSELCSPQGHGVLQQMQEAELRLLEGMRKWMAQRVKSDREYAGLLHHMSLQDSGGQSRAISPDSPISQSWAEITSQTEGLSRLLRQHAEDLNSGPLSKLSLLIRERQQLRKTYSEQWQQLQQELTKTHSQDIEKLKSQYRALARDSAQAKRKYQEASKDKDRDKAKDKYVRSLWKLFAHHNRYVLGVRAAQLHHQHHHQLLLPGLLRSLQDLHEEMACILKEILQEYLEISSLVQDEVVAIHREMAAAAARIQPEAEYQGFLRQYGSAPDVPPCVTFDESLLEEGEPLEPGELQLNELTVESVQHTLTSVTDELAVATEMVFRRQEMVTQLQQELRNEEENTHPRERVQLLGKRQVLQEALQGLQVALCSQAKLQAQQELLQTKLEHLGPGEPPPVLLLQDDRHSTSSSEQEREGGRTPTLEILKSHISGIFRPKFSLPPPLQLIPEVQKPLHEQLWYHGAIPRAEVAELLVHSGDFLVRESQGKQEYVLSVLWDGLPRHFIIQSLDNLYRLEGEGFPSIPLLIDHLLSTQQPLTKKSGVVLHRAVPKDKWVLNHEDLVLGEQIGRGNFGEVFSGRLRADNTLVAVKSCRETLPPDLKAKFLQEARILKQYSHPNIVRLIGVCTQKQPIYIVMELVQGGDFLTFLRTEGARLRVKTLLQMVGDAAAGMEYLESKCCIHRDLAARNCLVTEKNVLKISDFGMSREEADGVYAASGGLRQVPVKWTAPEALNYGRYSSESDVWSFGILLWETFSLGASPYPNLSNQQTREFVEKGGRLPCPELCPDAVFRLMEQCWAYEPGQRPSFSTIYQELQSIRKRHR
Conditions: at 10 µM
State just the number; it will be interpreted in %.

Request: Need residual activity of O=c1[nH]c2ccccc2n1C1CCN(Cc2ccc(-c3nc4cc5[nH]cnc5cc4nc3-c3ccccc3)cc2)CC1 , thanks.
Result: 97

Request: # lookup: residual activity of CCn1cnc2c(Nc3cccc(Cl)c3)nc(N[C@@H]3CCCC[C@@H]3N)nc21
Result: 9

Request: // query residual activity value for entry O=C1NC(=O)c2c1c1c3ccccc3n3c1c1c2c2ccccc2n1C1CCC3O1
Result: 99

Request: Entry under review: COc1cc(OC)c(/C=C2\C(=O)Nc3ccccc32)c(OC)c1 . Reported residual activity?
Result: 92

Request: residual activity lookup needed for CCc1nc(-c2ccc(OC)cc2)[nH]c1-c1ccncc1 , thanks.
Result: 105

Request: What measured residual activity goes with c1cc(-c2cnn3cc(-c4ccc(OCCN5CCCCC5)cc4)cnc23)ccn1 ?
Result: 31

Request: Param item = CC(C)(C)c1cc(C=C(C#N)C#N)cc(Br)c1O ; retrieve measured residual activity.
Result: 98

Request: Which measured residual activity value corresponds to COC(=O)[C@@]1(O)C[C@H]2O[C@]1(C)n1c3ccccc3c3c4c(c5c6ccccc6n2c5c31)C(=O)NC4 ?
Result: 1

Request: // lookup residual activity for COc1cc2ncnc(Nc3ccc(OCc4ccccc4)cc3)c2cc1OC
Result: 97

Request: Field request: residual activity | item: O=C1Nc2ccc3ncsc3c2/C1=C/c1c[nH]cn1
Result: 15

----------
Molecular target: RAF proto-oncogene serine/threonine-protein kinase (Homo sapiens) (UniProt P04049)
Sequence (P04049 whole entry): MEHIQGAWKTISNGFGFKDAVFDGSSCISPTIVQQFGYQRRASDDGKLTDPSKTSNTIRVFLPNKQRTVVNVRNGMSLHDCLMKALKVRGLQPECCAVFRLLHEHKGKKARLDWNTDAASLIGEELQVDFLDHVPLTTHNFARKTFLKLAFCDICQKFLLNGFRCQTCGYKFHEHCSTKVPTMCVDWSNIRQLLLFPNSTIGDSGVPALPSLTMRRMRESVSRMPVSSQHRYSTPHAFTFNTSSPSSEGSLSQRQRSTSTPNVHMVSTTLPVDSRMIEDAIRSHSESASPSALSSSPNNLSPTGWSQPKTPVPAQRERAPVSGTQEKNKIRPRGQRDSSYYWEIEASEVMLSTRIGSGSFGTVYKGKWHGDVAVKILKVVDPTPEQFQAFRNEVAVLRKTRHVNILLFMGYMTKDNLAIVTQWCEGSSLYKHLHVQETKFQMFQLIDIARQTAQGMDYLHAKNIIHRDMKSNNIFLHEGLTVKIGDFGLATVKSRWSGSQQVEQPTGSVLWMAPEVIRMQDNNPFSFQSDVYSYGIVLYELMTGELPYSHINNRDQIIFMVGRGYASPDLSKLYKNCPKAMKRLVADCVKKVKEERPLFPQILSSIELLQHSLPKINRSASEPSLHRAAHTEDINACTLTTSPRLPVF
Settings: at 10 µM
Labelling: residual activity reported below 70% becomes Condition met; at or above becomes Condition not met.

Request: Regarding O=C1NC(=O)c2c1c1c3ccccc3n3c1c1c2c2ccccc2n1C1CCC3O1 , kindly confirm whether its residual activity is beneath 70%.
Result: Condition not met

Request: Determine if O=[N+]([O-])/C=C/c1ccc2c(c1)OCO2 shows residual activity strictly lower than 70%.
Result: Condition not met

Request: Lab note: residual activity threshold 70%. Does this compound come in strictly under it? Oc1ccc(-c2nc(-c3ccc(F)cc3)c(-c3ccncc3)[nH]2)cc1
Result: Condition met

Request: Just wondering, is residual activity of COc1cc2ncnc(Nc3ccc(OCc4ccccc4)cc3)c2cc1OC below 70%?
Result: Condition not met

Request: Does the reported residual activity of the following compound sit strictly below 70%? CC(C)[C@H](CO)Nc1nc(Nc2cccc(Cl)c2)c2ncn(C(C)C)c2n1
Result: Condition met

Request: Record c1cc(-c2cnn3cc(-c4ccc(OCCN5CCCCC5)cc4)cnc23)ccn1 : is its residual activity strictly below 70%?
Result: Condition met

----------
Biological target: Mitogen-activated protein kinase 12 (Homo sapiens)
Details: at 10 µM
Kindly state residual activity for each of the entries shown.
Please reply with the bare figure in % and do not write the unit itself.

Request: Dear colleague, I am looking for the recorded residual activity of the following compound: COc1cc2nccc(Oc3ccc(NC(=S)NC(=O)c4ccccc4C)cc3)c2cc1OC
Result: 94

Request: Name the reported residual activity value associated with the compound O=C1C(Cl)=C(N2C(=O)CCC2=O)C(=O)c2ccccc21
Result: 99

Request: Given O=C1NC(=O)/C(=C\c2ccc3nccnc3c2)S1 , state its recorded residual activity.
Result: 61

Request: What value of residual activity has been reported for the following compound? Oc1c2ccccc2c2c3c(cccc13)N=N2
Result: 61

Request: Consider the compound shown here: O=Nc1c(-c2c(O)[nH]c3ccccc23)[nH]c2ccccc12 What is its recorded residual activity?
Result: 84

Request: Look up residual activity: COc1cc2ncnc(Nc3ccc(O)c(Br)c3)c2cc1OC
Result: 97

Request: Look up residual activity for this compound: Cc1ccc(S(=O)(=O)/C=C/C#N)cc1
Result: 92

Request: Name the recorded residual activity for Ic1cccc(CSc2nnc(-c3ccncc3)o2)c1 .
Result: 93

Request: Tell me the measured residual activity of Cn1nc2c3c(cccc31)C(=O)c1ccccc1-2 , please.
Result: 96

Request: Give the measured residual activity of Nc1nc(Nc2ccc(S(N)(=O)=O)cc2)nn1C(=O)c1c(F)cccc1F .
Result: 67

Request: Please report the recorded residual activity for COc1ccc(Cl)cc1NC(=O)Nc1cc(C)nc2ccccc12 .
Result: 85

Request: Given the compound O=C(c1ccccc1)c1ccc(N2CCOCC2)cc1O , what is its reported residual activity?
Result: 100

Request: Any idea what residual activity was measured for Oc1n[nH]c2nnc(-c3c(-c4ccccc4)nn4ccccc34)cc12 ?
Result: 90

Request: Which residual activity value belongs to CC(C)(C)n1nc(Cc2cccc3ccccc23)c2c(N)ncnc21 ?
Result: 98

Request: Sample COc1ccc(OC)c2c(=S)c3ccccc3[nH]c12 — what was its residual activity?
Result: 91

Request: Endpoint output: residual activity of O=C1c2ccccc2-c2nc3nnnn3nc21 . Value?
Result: 117

Request: Request the reported residual activity associated with CN(C)c1ccc(/C=C2\C(=O)Nc3ccccc32)cc1
Result: 83

Request: So what does the record say about residual activity for Oc1ccc(-c2nc(-c3ccc(F)cc3)c(-c3ccncc3)[nH]2)cc1 ?
Result: 67

Request: Given the compound COc1cc2ncnc(Nc3ccc(OCc4ccccc4)cc3)c2cc1OC , what is its reported residual activity?
Result: 115

Request: Look up residual activity: c1ccc(-c2cnc(Nc3ccc(OCCN4CCCC4)cc3)s2)cc1
Result: 100

Request: I am curious: what residual activity value has been reported for Cc1nc2cc3nc(-c4cccs4)cnc3cc2n1C ?
Result: 100

Request: Item under review: Cc1ccc(NC2=CC(=O)c3sc(C)nc3C2=O)cc1 . Reported residual activity?
Result: 102

Request: Item under review: Oc1cccc(-c2nc(N3CCOCC3)c3oc4ncccc4c3n2)c1 . Reported residual activity?
Result: 86

Request: Looking for the measured residual activity of Cc1cc2ncc(-c3ccccc3)nc2cc1C , can you help?
Result: 100

Request: Fill in the blank: the reported residual activity of Nc1n[nH]c2nnc(-c3c(-c4ccccc4)nn4ccccc34)cc12 is ____.
Result: 69

----------
Biological target: Ephrin type-A receptor 2 (Homo sapiens)
Details: at 10 µM
endpoint-label: residual activity (%)
Provide the reading as a plain figure in %.

Request: Entry under review: O=C1NC(=O)c2c1c1c3ccccc3n3c1c1c2c2ccccc2n1C1CCC3O1 . Reported residual activity?
Result: 98

Request: # residual activity lookup, item CCn1cnc2c(Nc3cccc(Cl)c3)nc(N[C@@H]3CCCC[C@@H]3N)nc21
Result: 24

Request: Field request: residual activity | item: CCc1nc(-c2ccc(OC)cc2)[nH]c1-c1ccncc1
Result: 105

Request: Could you share which residual activity value was measured for O=c1[nH]c2ccccc2n1C1CCN(Cc2ccc(-c3nc4cc5[nH]cnc5cc4nc3-c3ccccc3)cc2)CC1 ?
Result: 95

Request: Which measured residual activity value corresponds to O=C1c2ccccc2-c2nc3nnnn3nc21 ?
Result: 116

Request: # query: residual activity of entry O=C1Nc2ccc3ncsc3c2/C1=C/c1c[nH]cn1
Result: 31

Request: Form field: reported residual activity of COc1ccc2c(c[n+](C)c3c4cc5c(cc4ccc23)OCO5)c1OC
Result: 100

Request: Bench note: what residual activity did CC(C)[C@H](CO)Nc1nc(Nc2cccc(Cl)c2)c2ncn(C(C)C)c2n1 show?
Result: 27

Request: Which measured residual activity value corresponds to c1cc(-c2cnn3cc(-c4ccc(OCCN5CCCCC5)cc4)cnc23)ccn1 ?
Result: 8

Request: Item under review: COc1cc2ncnc(Nc3ccc(OCc4ccccc4)cc3)c2cc1OC . Reported residual activity?
Result: 108
